The measured values listed here are drawn from ChEMBL document CHEMBL3769331.

Recorded IC50 values for a group of compounds are listed next.
Target: Disintegrin and metalloproteinase domain-containing protein 10 (Homo sapiens)
Sequence (O14672 whole entry): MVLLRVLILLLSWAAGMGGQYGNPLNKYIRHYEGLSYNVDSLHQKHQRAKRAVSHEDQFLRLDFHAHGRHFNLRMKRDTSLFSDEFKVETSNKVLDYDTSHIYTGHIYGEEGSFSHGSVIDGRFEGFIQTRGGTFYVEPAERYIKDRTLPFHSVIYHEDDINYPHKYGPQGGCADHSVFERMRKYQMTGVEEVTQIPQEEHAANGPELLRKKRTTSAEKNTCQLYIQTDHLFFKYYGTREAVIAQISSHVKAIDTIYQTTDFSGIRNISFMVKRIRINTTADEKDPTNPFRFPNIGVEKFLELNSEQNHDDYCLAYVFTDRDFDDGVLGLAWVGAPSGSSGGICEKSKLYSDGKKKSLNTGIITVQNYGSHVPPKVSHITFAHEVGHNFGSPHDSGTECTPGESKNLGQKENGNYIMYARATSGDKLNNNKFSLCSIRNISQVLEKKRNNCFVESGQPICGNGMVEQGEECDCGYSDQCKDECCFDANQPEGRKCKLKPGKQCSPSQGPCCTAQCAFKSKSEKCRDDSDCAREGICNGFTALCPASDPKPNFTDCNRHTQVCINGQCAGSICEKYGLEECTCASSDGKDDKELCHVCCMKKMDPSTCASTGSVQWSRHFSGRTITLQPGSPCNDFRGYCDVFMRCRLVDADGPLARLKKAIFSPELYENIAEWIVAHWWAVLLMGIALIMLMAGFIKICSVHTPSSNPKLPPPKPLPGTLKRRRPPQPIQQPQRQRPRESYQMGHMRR
Experiment: Inhibition of ADAM-10 in human KM-H2 cells assessed as reduction in pervanadate-induced soluble MICB shedding after 24 hrs by ELISA
Type: cell-based
READOUT KIND: IC50 (µM)

Cc1cc(C#N)ccc1N1CCN(S(=O)(=O)N2CSC[C@@H]2C(=O)NO)CC1 ... 5
Cc1cc(C#N)ccc1N1CCN(S(=O)(=O)N[C@H](CCCNC(=O)OCc2ccccc2)C(=O)NO)CC1 ... 7
O=C(NCCC[C@@H](NS(=O)(=O)c1ccc(OCc2cc(Br)cc(Br)c2)cc1)C(=O)NO)OCc1ccccc1 ... 15
CNC(=O)[C@@H](NC(=O)[C@H](CCCc1ccccc1)[C@H](C)N(O)C=O)C(C)(C)C ... 12

====

// IC50 lookup, one value per entry
biological target: Disintegrin and metalloproteinase domain-containing protein 17 (Homo sapiens); assay: Inhibition of recombinant human ADAM-17 using Mca-Lys-Pro-Leu-Gly-Leu-Dap(Dnp)-Ala-Arg-NH2 as substrate after 30 mins by fluorometric assay
Sequence (P78536 whole entry, the tested form may be a part): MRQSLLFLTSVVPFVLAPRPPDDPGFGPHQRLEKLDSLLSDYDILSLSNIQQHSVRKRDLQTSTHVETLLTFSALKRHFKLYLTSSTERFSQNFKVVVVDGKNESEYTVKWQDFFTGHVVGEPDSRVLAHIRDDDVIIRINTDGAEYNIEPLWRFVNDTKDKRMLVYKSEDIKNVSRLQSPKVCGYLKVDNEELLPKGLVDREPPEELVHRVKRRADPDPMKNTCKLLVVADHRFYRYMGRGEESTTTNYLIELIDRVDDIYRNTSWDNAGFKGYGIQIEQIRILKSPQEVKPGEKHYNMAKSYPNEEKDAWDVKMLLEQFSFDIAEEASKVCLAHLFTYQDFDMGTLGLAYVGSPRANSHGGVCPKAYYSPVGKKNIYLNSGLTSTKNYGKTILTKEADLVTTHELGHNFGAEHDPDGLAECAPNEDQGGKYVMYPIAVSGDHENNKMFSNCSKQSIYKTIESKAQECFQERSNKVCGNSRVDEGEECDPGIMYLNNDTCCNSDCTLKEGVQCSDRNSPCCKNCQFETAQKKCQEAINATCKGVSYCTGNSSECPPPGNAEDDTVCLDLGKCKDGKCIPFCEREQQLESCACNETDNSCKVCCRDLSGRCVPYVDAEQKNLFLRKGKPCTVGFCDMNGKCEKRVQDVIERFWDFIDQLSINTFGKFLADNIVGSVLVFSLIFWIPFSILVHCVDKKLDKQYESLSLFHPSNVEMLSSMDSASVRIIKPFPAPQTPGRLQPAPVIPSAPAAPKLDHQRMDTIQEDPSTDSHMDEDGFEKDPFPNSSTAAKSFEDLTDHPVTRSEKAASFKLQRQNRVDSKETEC
READOUT KIND: IC50 (nM)

Cc1cc(C#N)ccc1N1CCN(S(=O)(=O)N[C@H](CCCNC(=O)OCc2ccccc2)C(=O)NO)CC1 ... 90
Cc1cc(C#N)ccc1N1CCN(S(=O)(=O)N2CSC[C@@H]2C(=O)NO)CC1 ... 1500
CNC(=O)[C@@H](NC(=O)[C@H](CCCc1ccccc1)[C@H](C)N(O)C=O)C(C)(C)C ... 860

====

biological target: 72 kDa type IV collagenase (Homo sapiens); assay: Inhibition of recombinant human MMP-2 using Mca-Lys-Pro-Leu-Gly-Leu-Dap(Dnp)-Ala-Arg-NH2 as substrate after 3 hrs by fluorometric assay
Sequence (P08253 whole entry): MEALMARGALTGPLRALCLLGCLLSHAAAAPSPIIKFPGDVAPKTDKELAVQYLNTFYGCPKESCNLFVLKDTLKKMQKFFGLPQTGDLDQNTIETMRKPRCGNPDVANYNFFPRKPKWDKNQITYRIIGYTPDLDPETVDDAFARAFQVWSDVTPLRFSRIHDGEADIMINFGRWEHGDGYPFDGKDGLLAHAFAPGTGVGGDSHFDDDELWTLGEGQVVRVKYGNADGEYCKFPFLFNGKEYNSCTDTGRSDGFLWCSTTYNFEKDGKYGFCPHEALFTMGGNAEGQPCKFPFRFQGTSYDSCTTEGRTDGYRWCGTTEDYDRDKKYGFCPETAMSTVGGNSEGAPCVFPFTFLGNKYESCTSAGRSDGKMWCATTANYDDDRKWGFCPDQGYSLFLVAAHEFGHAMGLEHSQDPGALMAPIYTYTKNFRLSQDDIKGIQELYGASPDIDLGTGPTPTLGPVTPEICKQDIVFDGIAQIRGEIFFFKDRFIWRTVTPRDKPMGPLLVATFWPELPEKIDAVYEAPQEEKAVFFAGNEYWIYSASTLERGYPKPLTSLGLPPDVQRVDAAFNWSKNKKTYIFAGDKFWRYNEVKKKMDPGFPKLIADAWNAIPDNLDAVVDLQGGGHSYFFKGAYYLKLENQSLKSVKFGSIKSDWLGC
pIC50: −log10 of the molar value.
This section presents compounds with their documented pIC50 values.
READOUT KIND: pIC50

Cc1cc(C#N)ccc1N1CCN(S(=O)(=O)N[C@H](CCCNC(=O)OCc2ccccc2)C(=O)NO)CC1 ... 6.43
Cc1cc(C#N)ccc1N1CCN(S(=O)(=O)N2CSC[C@@H]2C(=O)NO)CC1 ... 5.27
CNC(=O)[C@@H](NC(=O)[C@H](CCCc1ccccc1)[C@H](C)N(O)C=O)C(C)(C)C ... 8.68

====

target: Disintegrin and metalloproteinase domain-containing protein 10 (Homo sapiens); assay: Inhibition of ADAM-10 in human L540 cells assessed as reduction in pervanadate-induced soluble MICB shedding after 24 hrs by ELISA; format: cell-based, L-540
pIC50: −log10 of the molar value.
READOUT KIND: pIC50

O=C(NCCC[C@@H](NS(=O)(=O)c1ccc(OCc2cc(Br)cc(Br)c2)cc1)C(=O)NO)OCc1ccccc1 ... 4.82
Cc1cc(C#N)ccc1N1CCN(S(=O)(=O)N2CSC[C@@H]2C(=O)NO)CC1 ... 5.15
Cc1cc(C#N)ccc1N1CCN(S(=O)(=O)N[C@H](CCCNC(=O)OCc2ccccc2)C(=O)NO)CC1 ... 4.92
CNC(=O)[C@@H](NC(=O)[C@H](CCCc1ccccc1)[C@H](C)N(O)C=O)C(C)(C)C ... 4.92

====

Target: Disintegrin and metalloproteinase domain-containing protein 10 (Homo sapiens)
Sequence (O14672 whole entry): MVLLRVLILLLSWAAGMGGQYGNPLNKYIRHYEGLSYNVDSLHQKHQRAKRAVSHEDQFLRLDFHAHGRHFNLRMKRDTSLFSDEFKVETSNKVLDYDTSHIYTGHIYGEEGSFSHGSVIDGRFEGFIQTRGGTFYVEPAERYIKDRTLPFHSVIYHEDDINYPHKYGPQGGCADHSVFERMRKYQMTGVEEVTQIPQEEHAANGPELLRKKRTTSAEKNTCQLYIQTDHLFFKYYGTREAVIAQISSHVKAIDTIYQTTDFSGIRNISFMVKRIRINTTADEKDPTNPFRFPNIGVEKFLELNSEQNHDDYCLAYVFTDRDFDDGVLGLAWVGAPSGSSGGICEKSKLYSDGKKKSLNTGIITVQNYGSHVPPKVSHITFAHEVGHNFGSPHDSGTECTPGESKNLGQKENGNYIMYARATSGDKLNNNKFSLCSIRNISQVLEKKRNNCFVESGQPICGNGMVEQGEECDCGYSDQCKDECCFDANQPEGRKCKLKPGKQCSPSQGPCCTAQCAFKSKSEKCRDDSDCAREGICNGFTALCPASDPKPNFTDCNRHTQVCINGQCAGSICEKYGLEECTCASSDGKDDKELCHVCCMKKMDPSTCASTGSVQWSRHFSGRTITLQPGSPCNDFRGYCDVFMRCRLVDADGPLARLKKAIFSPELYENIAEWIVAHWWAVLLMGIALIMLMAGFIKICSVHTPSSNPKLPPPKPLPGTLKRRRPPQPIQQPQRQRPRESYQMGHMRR
Assay: Inhibition of ADAM-10 in human L428 cells assessed as reduction in pervanadate-induced soluble ULBP3 shedding after 24 hrs by ELISA
Assay type: cell-based, L-428
pIC50: −log10 of the molar value.
Catalogue of pIC50 values
READOUT KIND: pIC50

O=C(NCCC[C@@H](NS(=O)(=O)c1ccc(OCc2cc(Br)cc(Br)c2)cc1)C(=O)NO)OCc1ccccc1 ... 5.00
CNC(=O)[C@@H](NC(=O)[C@H](CCCc1ccccc1)[C@H](C)N(O)C=O)C(C)(C)C ... 4.82
Cc1cc(C#N)ccc1N1CCN(S(=O)(=O)N[C@H](CCCNC(=O)OCc2ccccc2)C(=O)NO)CC1 ... 5.00
Cc1cc(C#N)ccc1N1CCN(S(=O)(=O)N2CSC[C@@H]2C(=O)NO)CC1 ... 5.30

====

biological target: Disintegrin and metalloproteinase domain-containing protein 17 (Homo sapiens); test: Inhibition of ADAM-17 in human L428 cells assessed as reduction in pervanadate-induced soluble ALCAM shedding after 24 hrs by ELISA; format: cell-based, L-428
pIC50: −log10 of the molar value.
pIC50 reference
READOUT KIND: pIC50

CNC(=O)[C@@H](NC(=O)[C@H](CCCc1ccccc1)[C@H](C)N(O)C=O)C(C)(C)C ... 5.00
Cc1cc(C#N)ccc1N1CCN(S(=O)(=O)N[C@H](CCCNC(=O)OCc2ccccc2)C(=O)NO)CC1 ... 6.00
O=C(NCCC[C@@H](NS(=O)(=O)c1ccc(OCc2cc(Br)cc(Br)c2)cc1)C(=O)NO)OCc1ccccc1 ... 7.00
Cc1cc(C#N)ccc1N1CCN(S(=O)(=O)N2CSC[C@@H]2C(=O)NO)CC1 ... 4.92
